- tgt: UniProt:O75762
- Sequence (O75762 whole entry): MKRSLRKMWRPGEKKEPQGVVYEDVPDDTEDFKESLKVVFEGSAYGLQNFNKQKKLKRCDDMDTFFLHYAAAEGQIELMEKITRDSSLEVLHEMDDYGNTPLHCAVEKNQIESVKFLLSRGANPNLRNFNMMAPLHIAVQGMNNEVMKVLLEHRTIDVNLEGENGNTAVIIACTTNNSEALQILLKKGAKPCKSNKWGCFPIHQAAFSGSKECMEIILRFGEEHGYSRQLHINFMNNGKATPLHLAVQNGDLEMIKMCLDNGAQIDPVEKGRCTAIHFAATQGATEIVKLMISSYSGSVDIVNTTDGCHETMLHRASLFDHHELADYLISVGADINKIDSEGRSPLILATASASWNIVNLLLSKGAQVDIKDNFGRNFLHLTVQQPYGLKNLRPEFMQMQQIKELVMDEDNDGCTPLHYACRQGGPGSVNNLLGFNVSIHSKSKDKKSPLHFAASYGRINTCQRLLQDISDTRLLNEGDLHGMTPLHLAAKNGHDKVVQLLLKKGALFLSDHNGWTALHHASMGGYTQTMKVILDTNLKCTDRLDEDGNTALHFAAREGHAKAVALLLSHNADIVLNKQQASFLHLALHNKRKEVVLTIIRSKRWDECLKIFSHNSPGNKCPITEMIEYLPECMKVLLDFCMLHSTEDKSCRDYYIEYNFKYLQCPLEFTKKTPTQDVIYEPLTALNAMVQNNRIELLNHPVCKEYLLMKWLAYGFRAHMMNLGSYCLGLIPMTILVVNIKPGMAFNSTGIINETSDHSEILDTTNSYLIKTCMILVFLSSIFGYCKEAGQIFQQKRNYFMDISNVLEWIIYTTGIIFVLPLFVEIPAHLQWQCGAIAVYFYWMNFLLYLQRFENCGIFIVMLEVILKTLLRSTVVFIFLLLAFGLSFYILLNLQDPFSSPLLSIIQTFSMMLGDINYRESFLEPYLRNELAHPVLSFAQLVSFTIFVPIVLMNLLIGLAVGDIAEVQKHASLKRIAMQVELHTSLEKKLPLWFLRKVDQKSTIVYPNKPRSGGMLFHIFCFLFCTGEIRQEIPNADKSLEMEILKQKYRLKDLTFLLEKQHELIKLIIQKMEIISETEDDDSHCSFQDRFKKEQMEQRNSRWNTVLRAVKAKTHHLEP
- protocolNotes: hTRPA1 CHO Ca2+ FLIPR Tetra assay: block of cinnamaldehyde induced calcium influx
- Type: cell-based
- testContext: read-out: hTRPA1 IC50 90 min; CHO cells expressing TRPA1; 90 minutes incubation with compound before cinnamaldehyde (about EC80); Hill coefficient fixed to 1.5
pIC50: −log10 of the molar value.
Label y when pIC50 >= 8; otherwise n.

Problem: Could you tell me if the measured pIC50 of Cn1cnc2ncn(Cc3nc([C@@H]4CO[C@@H](c5ccc(OC(F)(F)F)cc5)C4)no3)c(=O)c21 [Example 21] reaches 8 or more?
Solution: n

New cases:
Problem: Threshold query (pIC50 >= 8) on Cc1ccnc2ncn(Cc3nc([C@@H]4CO[C@@H](c5ccc(Cl)cc5)C4)no3)c(=O)c12 [Example 54]
Solution: y

Problem: Please check the record Cn1cnc2ncn(Cc3nc([C@@H]4CO[C@@H](c5ccc6ccccc6c5)C4)no3)c(=O)c21 [Example 33] and state if its pIC50 is at or above 8.
Solution: y

Problem: Would you say Cc1ncn2nc(N)n(Cc3nc([C@@H]4CO[C@@H](c5ccc(Cl)cc5)C4)no3)c(=O)c12 [Example 84] shows pIC50 at minimum 8?
Solution: y

Problem: I'd appreciate it if you could say whether Nc1nc2ncccc2c(=O)n1Cc1nc([C@@H]2CO[C@@H](c3ccc(Cl)cc3)C2)no1 [Example 62] has pIC50 at least equal to 8.
Solution: y
